molecular target: Pangolin CoV GD1 RBD (Pangolin coronavirus Guangdong, isolate …, strain); test: BLI; details: both partners purified
Kd listing for selected binders.
Quick reminder: number only, in nM, skip the unit.

Field: example entries. Status: answers known.
# BINDER, VALUE_OBSERVED
data = [
    ("H16 (antibody, V domains shown, human IgG1) VH: QLQLQESGPGLVKPSETLSLTCTVSGGSISSSSYYWGWIRQPPGKGLEWIGSIYYSGSTYYNPSLKSRVTISVDTSKNQFSLKLSSVTAADTAVYYCARREWLRGPFDYWGQGTLVTVSS VL: NFMLTQPHSVSESPGKTVTISCTRSSGSIASNYVQWYQQRPGSSPTTVIYEDNQRPSGVPDRFSGSIDSSSNSASLTISGLKTEDEADYYCQSYDSSNVVFGGGTKLTVL", 737),
    ("H4 (antibody, V domains shown) VH: EVQLVESGGGLVQPGGSLRLSCAASGFTFSSYWMSWVRQAPGKGLEWVANIKQDGSEKYYVDSVKGRFTISRDNAKNSLYLQMNSLRAEDTAVYYCASQLWLRGAFDIWGQGTMVTVSS VL: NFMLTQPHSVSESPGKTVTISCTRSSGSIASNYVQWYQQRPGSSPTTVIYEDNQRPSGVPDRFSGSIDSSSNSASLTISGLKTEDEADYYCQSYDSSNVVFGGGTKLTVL", 355),
    ("H14 (antibody, V domains shown, human IgG1) VH: QVQLQESGPGLVKPSQTLSLTCTVSGGSISSGGYYWSWIRQHPGKGLEWIGYIYYSGSTYYNPSLKSLVTISVDTSKNQFSLKLSSVTAADTAVYYCARKGWLRGAFDIWGQGTMVTVSS VL: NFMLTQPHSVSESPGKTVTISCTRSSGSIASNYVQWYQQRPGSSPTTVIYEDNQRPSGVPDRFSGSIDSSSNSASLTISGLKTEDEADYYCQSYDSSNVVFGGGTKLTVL", 451),
]

Shifting focus to the binder that follows.
// query Given the binder H18 (antibody, V domains shown, human IgG1) VH: QVQLQESGPGLVKPSETLSLTCTVSGGSVSSGGYFWSWIRQPPGKGLEWIGCIYYSGSTNYNPSLKSRVTISVDTSKDQFSLKLSSVTAADTAVYYCARQLWLRGRFDYWGQGTLVTVSS VL: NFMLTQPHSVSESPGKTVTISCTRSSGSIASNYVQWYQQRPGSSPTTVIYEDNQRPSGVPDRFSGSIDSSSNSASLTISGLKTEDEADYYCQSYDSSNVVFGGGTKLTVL , what is its reported Kd?
// result 134
